Please go through the items and note down their activity change, negative = cytotoxicity.
MEASUREMENT DESCRIPTION: qHTS RealTime-Glo MT Cell Viability Assay in HEK293 cells - 24 hour (AID 1224886); further: top concentration of the series differs between compounds; on the % scale 0 is the no-effect control and ±100 the full control effect; nearly all actives have a fitted effect of over 50% in size
CONDITION CONTEXT: RealTime-Glo luminescence; series mostly up to 76.8 µM
Records with an inconclusive call do not appear. The source made the active and inactive calls. The call rests on the fitted dose curve; in most records, active means well fitted cell-killing curve with a large enough effect in the repeat runs; inconclusive means weak or mixed curves, or effect the other way; inactive means flat fitted curve, though single readings scatter.

So what does the record say about activity change, negative = cytotoxicity for CCCCNc1ccc(NCCCC)c2c1C(=O)c1ccccc1C2=O ?
-0.0547% [at 15.8 µM] (inactive)

So what does the record say about activity change, negative = cytotoxicity for COc1cc(C(C)C)ccc1C ?
0.818% [at 15.8 µM] (inactive)

So what does the record say about activity change, negative = cytotoxicity for O=C(O)C[C@H](O)C[C@H](O)/C=C/c1c(C2CC2)nc2ccccc2c1-c1ccc(F)cc1 ?
-0.416% [at 15.8 µM] (inactive)

So what does the record say about activity change, negative = cytotoxicity for C=CC(=O)OCCOC1C2CCC1C1CC=CC12 (centres undefined) ?
-2.24% [at 15.8 µM] (inactive)

###

MEASUREMENT DESCRIPTION: qHTS assay to identify small molecule antagonists of the peroxisome proliferator-activated receptor delta (PPARd) signaling pathway - cell viability counter screen (AID 743213); further: nearly all actives have a fitted effect of over 50% in size; further: potency means the concentration at half of the fitted maximal effect
CONDITION CONTEXT: PPARd-bla HEK293H viability, CellTiter-Glo luminescence, 17 h; series mostly up to 62 µM
Records with an inconclusive call do not appear. Calls of active or inactive are those of the source. Calls follow the shape of the dose curve; as a rule, active = well fitted cell-killing curve with a large enough effect in the repeat runs; inconclusive = weak or mixed curves; inactive = no such curve, though single readings can be large or run the other way.
REPORTED METRIC: Potency

Cc1cc(F)ccc1-c1cc(N2CC[C@@H](O)[C@H]2CO)ncc1N(C)C(=O)C(C)(C)c1cc(C(F)(F)F)cc(C(F)(F)F)c1 ... 13.6 µM (active)
COc1c(Br)cc(Br)c(C)c1Br ... inactive
N#Cc1nc(Cl)c(Cl)c(Cl)c1Cl ... 15.5 µM (active)
CCC(C)(C)c1ccc(CC(C)CN2C[C@@H](C)O[C@@H](C)C2)cc1 (stereo partly drawn) ... inactive
O=C(N[C@H](CO)[C@H](O)c1ccc([N+](=O)[O-])cc1)C(Cl)Cl ... inactive
CC(=O)[C@]1(O)Cc2c(O)c3c(c(O)c2[C@@H](O[C@H]2C[C@H](N)[C@H](O)[C@H](C)O2)C1)C(=O)c1ccccc1C3=O ... inactive
SC1CCCCC1 ... inactive
CN1CCN(CCCN2c3ccccc3Sc3ccc(C(F)(F)F)cc32)CC1 ... 26.6 µM (active)
Oc1ccc(Cl)cc1C1CCCC1 ... inactive
O=C1CCCCCCCCCCCCCC1 ... inactive

So what does the record say about Potency for CC1=C(/C=C/C(C)=C/C=C/C(C)=C\C(=O)O)C(C)(C)CCC1 ?
inactive

So what does the record say about Potency for CCCCCN=C(N)N/N=C/c1c[nH]c2ccc(OC)cc12 ?
33.5 µM (active)

So what does the record say about Potency for CN(C)CCOc1ccc(/C(=C(/CCCl)c2ccccc2)c2ccccc2)cc1 ?
10.3 µM (active)

So what does the record say about Potency for CC(Cc1ccc(O)c(O)c1)C(C)Cc1ccc(O)c(O)c1 (stereo not drawn) ?
inactive

So what does the record say about Potency for CCOc1ccc([N+](=O)[O-])cc1 ?
44.3 µM (active)

So what does the record say about Potency for Cc1cc(Br)ccc1NC(=O)CCl ?
24.5 µM (active)

So what does the record say about Potency for O=C1OC(=O)c2cc(-c3ccc4c(c3)C(=O)OC4=O)ccc21 ?
54.9 µM (active)

So what does the record say about Potency for CCCCCCCCCC[N+](C)(CCCCCCCCCC)CCC[Si](OC)(OC)OC ?
9.77 µM (active)
